Measured values drawn from BindingDB's records for doi:10.1021/jm00096a020 for this set.

- STUDY_TARGET: Human immunodeficiency virus type 1 protease (Human immunodeficiency virus 1, UniProt Q72874)
- EXPERIMENT_SUMMARY: Inhibition of HIV-1 protease in 5%DMSO
pIC50: −log10 of the molar value.
Recorded pIC50 for the following compounds
MEASURED_PARAMETER: pIC50

[[record]]
compound = "CC1=C(CCC(=O)O)/C2=C/c3c(CCC(=O)O)c(C)c4[n]3[Mn][n]3/c(c(C)c(C(COC(=O)C5=CC5)OC(=O)C5=CC5)/c3=C/C3=NC(=C\\4)/C(C(COC(=O)C4=CC4)OC(=O)C4C=C4)=C3C)=C\\C1=N2 (stereo not drawn)"
measured_parameter = "pIC50"
test_result = 6.40

[[record]]
compound = "CC1=C(CCC(=O)O)/C2=C/c3c(CCC(=O)O)c(C)c4[n]3[Cu][n]3/c(c(C)c(C(COC(=O)C5=CC5)OC(=O)C5=CC5)/c3=C/C3=NC(=C\\4)/C(C(COC(=O)C4=CC4)OC(=O)C4=CC4)=C3C)=C\\C1=N2 (stereo not drawn)"
measured_parameter = "pIC50"
test_result = 6.01

[[record]]
compound = "CC1=C(CCC(=O)O)c2cc3nc(cc4[nH]c(cc5[nH]c(cc1n2)c(C)c5C(COC(=O)C1=CC1)OC(=O)C1=CC1)c(C)c4C(COC(=O)C1=CC1)OC(=O)C1=CC1)C(C)=C3CCC(=O)O (stereo not drawn)"
measured_parameter = "pIC50"
test_result = 6.73


###

- STUDY_TARGET: Pol polyprotein (Human immunodeficiency virus 2, UniProt P88142)
- Sequence (P88142 whole entry): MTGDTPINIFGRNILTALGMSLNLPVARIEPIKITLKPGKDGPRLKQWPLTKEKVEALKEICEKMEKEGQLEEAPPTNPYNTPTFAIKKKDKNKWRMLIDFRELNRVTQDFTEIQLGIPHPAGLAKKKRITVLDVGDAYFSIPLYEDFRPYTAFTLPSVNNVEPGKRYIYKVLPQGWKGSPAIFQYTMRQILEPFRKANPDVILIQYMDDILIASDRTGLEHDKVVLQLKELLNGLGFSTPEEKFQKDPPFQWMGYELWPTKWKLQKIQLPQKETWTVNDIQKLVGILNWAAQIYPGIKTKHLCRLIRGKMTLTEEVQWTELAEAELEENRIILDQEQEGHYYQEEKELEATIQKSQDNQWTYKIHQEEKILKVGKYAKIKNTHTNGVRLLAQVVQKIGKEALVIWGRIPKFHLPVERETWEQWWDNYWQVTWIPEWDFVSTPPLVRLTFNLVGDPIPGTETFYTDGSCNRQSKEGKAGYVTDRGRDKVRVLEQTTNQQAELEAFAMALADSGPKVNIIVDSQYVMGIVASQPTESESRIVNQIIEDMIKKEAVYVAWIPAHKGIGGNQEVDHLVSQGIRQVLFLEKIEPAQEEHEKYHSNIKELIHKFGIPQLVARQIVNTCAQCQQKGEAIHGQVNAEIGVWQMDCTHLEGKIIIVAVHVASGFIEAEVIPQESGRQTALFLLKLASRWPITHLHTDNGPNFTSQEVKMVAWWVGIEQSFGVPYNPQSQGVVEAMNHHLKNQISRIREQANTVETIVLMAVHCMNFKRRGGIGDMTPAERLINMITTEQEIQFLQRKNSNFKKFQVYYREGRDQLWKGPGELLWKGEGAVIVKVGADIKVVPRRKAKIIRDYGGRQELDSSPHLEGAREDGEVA
- EXPERIMENT_SUMMARY: ChEBML_159124
- Source text: Inhibition of HIV-2 protease in 5%DMSO
Recorded IC50 for the following compounds
MEASURED_PARAMETER: IC50 (nM)

[[record]]
compound = "CC1=C(CCC(=O)O)/C2=C/c3c(CCC(=O)O)c(C)c4[n]3[Cu][n]3/c(c(C)c(C(COC(=O)C5=CC5)OC(=O)C5=CC5)/c3=C/C3=NC(=C\\4)/C(C(COC(=O)C4=CC4)OC(=O)C4=CC4)=C3C)=C\\C1=N2 (stereo not drawn)"
study_target = "Pol polyprotein (Human immunodeficiency virus 2, UniProt P88142)"
measured_parameter = "IC50"
unit_of_measure = "nM"
test_result = 2200

[[record]]
compound = "CC1=C(CCC(=O)O)c2cc3nc(cc4[nH]c(cc5[nH]c(cc1n2)c(C)c5C(COC(=O)C1=CC1)OC(=O)C1=CC1)c(C)c4C(COC(=O)C1=CC1)OC(=O)C1=CC1)C(C)=C3CCC(=O)O (stereo not drawn)"
study_target = "Pol polyprotein (Human immunodeficiency virus 2, UniProt P88142)"
measured_parameter = "IC50"
unit_of_measure = "nM"
test_result = 700

[[record]]
compound = "CC1=C(CCC(=O)O)/C2=C/c3c(CCC(=O)O)c(C)c4[n]3[Co][n]3/c(c(C)c(C(COC(=O)C5=CC5)OC(=O)C5=CC5)/c3=C/C3=NC(=C\\4)/C(C(COC(=O)C4=CC4)OC(=O)C4=CC4)=C3C)=C\\C1=N2 (stereo not drawn)"
study_target = "Pol polyprotein (Human immunodeficiency virus 2, UniProt P88142)"
measured_parameter = "IC50"
unit_of_measure = "nM"
test_result = 1500

